Assay: yeast display, Sf9 membrane polyspecificity reagent, FACS + sequencing; frameworks hold sequencing errors
Reported Property: polyreactivity (PSR sort gate)

Please review the following examples before continuing.
>>> result("QVQLVESGGGLVQAGGSLRLSCAASGSILVSYAMGWYRQAPGKERELVAAITSGGRTKYADSVKGRFTISRDNAKNTVYLQMNSLKPEDTAVYYCAADDPLSYQFDYWGQGTQVTVSS")
"high polyreactivity"
>>> result("QVQLVESGGGLVQAGGSLRLSCAASARIFGWNSMGWYRQAPGKERELVAAISWRGGSTYYADSVKGRFTISRDNAKNTVYLQMNSLKPEDTAVYYCNALYTRYVSQWFGYWGEGTQVTVSS")
"high polyreactivity"
>>> result("QVQLVESGGGLVQAGGSLRLSCAASGSIFDYYAMGWYRQAPGKETEFVADICSSGTSTYYADSVKGRFTISRDNAKNTVYLQMNSLKPEDTAVYYCNSELDSWLSYVVAYFARFDYWGQGTQVTVSS")
"high polyreactivity"
>>> result("QVQLVESGGGLVQAGGSLRLSCAASGSIFPGYAMGWYRQAPGKERELVATITYSDGSTYYADSVKGRFTISRDNAKNTVYLQMNSLKPEDTAVYYCAVTYWWYYGYDYWGQGTQVTVSS")
"low polyreactivity"
>>> result("QVQLVESGGGLDQARGSLRLSCPASGFIFTDYAMGWYRQAPGKERELVAGISGSGGRTYYADSVKGRFTISRDNAKNTVYLQMNSLKPEDTAVYYCAARGVPWLWYFRGMYWGQGTQVTVSS")
"high polyreactivity"

Query: Return reported polyreactivity (PSR sort gate); argument: QVQLVESGGGLVQAGGSLRLSCAASGSTFEYYAMGWYRQAPGKERELVAAITTSGGITYYADSVKGRFTISRDNAKNTVYLQMNSLKPEDTAVYYCNADAVPLPTLVTYLYDYWGQGTQVTVSS
Reply: low polyreactivity

Query: Return reported polyreactivity (PSR sort gate); argument: QVQLVESGGGLVQAGGSLRLSCAASGLTVKYYAMGWFRQAPGKERELAAIISFGGGSTYYADSVKGRFTISRDNAKNTVYLQMNSLKPEDTAVYYCNARLLFKYGYWGQGTQVTVSS
Reply: high polyreactivity

Query: Return reported polyreactivity (PSR sort gate); argument: QVQLVESGGGLVQAGGSLRLSCAASGFIFSVYTMGWYRQAPGKERELVASITGSGGDTYYADSVKGRFTISRDNAKNTVYLQMNSLKPEDTAVYYCNVDAGFHDSYHAWNFRYDYWGQGTQVTVSS
Reply: low polyreactivity

Query: Return reported polyreactivity (PSR sort gate); argument: QVQLVESGGGLVQAGGSLRLSCAASGRIFRHNPMGWYRQAPGKERELVAAITSRGGTYYADSVKGRFTISRDNAKNTVYFQMNSVKPEDTAVYYCAADRPIYPYPGKGFRYDYWGQGTQVTVSS
Reply: low polyreactivity

Query: Return reported polyreactivity (PSR sort gate); argument: QVQLVESGGGLVQAGGSLRLRCAASGIIFTGYALGWYRQAPGKESELVAAISRSGGGTYYADSVKARFTISRDNAKNTVYLQINSLKPEDTAVYYCNRLRIAASYWQAYDYWGQGTQVTLSS
Reply: high polyreactivity

Query: Return reported polyreactivity (PSR sort gate); argument: QVQLVESGGGLVQAGGSLRLTCAASGRIFYKYVMGWYRQAPGKERELVATITSGGSTYYADSVKGRFTISRDNAKNTVYLHMNSLKPEDTAVYYCAARKYYSRAYDYWGQGTQVTVSS
Reply: high polyreactivity
